# TARGET_OR_SYSTEM: T1, CT receptor of human breast tumor cell lines T-47D and MCF-7 (human, UniProt P30988 25-474)
# T1 construct: whole, on cells; Native receptor; also called calcitonin receptor
# T1 sequence (looked up): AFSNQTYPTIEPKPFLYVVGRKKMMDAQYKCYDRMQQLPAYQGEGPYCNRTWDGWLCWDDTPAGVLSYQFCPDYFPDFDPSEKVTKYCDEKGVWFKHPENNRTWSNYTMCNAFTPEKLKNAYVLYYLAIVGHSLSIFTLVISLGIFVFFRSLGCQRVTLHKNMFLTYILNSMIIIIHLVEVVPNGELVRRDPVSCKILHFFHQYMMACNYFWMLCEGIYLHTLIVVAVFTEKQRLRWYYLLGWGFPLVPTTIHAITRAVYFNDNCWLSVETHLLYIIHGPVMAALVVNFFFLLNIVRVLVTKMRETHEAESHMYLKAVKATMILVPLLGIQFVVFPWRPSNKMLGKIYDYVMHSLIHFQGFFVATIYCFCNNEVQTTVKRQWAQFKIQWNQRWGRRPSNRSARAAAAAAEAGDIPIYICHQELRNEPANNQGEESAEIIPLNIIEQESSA
# PROTOCOL_NOTES: displacement of 125I-salmon CT, whole MCF-7 cells
Starred links: 1 amine or outer side, 2 acyl side, 3 side chain; linkers in the order of their positions; H or OH if unused. Positions of bridges follow the written chain, without caps; N, C: chain ends. Non-standard residues stand in square brackets, D forms with d. Groups on a side chain read outwards from the residue. No end group written: not given here. Hhc = homohomocysteine, O=C([C@H](CCCS[*:3])N[*:1])[*:2]; εLys = N[C@@H](CCCCN[*:1])C(=O)[*:2]; Asu = N[C@@H](CCCCCC(=O)O)C(=O)O; hCys = N[C@@H](CCS)C(=O)O
PROPERTY_MEASURED: pIC50
// pIC50 here means minus log10 of the molar concentration (mol/L)

Consider the worked cases shown below.
>>> assay_result("{CH2CO}-SNLST[hCys]VLGKLSC([CH2CO-Gly-Gly-Cys-Lys-NH2])ELHKLQTYPRTNTGSGTP-NH2 (thioether N-6; also: ReO complex of chelator on Cys13, Oxorhenium complex; also called Peptide 8 ReO complex) [CH2CO.SNLST.Hcy.VLGKLSC(CH2CO.GGCK.amide)ELHKLQTYPRTNTGSGTP.amide•ReO]")
8.32
>>> assay_result("{CH2CO}-SNLST[Hhc]VLGKLSC([CH2CO-εLys-Gly-Cys-Glu-NH2])ELHKLQTYPRTNTGSGTP-NH2 (thioether N-6; also: ReO complex of chelator on Cys13, Oxorhenium complex; also called Peptide 6 ReO complex) [CH2CO.SNLST.Hhc.VLGKLSC(CH2CO.(ε-K)GCE.amide)ELHKLQTYPRTNTGSGTP.amide•ReO]")
8.48
>>> assay_result("CSNLSTCVLGKLSQELHKLQTYPRTNTGSGTP-NH2 (ligand, disulfide 1-7, Unlabeled salmon calcitonin, bought (Sigma); also called salmon CT; sCT) [CSNLSTCVLGKLSQELHKLQTYPRTNTGSGTP-NH2 (salmon calcitonin)]")
7.91
>>> assay_result("{CH2CO}-SNLSTCVLGKLSC([CH2CO-εLys-Gly-Cys-Glu-NH2])ELHKLQTYPRTNTGSGTP-NH2 (thioether N-6; also: ReO complex, Oxorhenium complex; also called Peptide 14 ReO complex) [CH2CO.SNLST.Cys.VLGKLSC(CH2CO.(ε-K)GCE.amide)ELHKLQTYPRTNTGSGTP.amide•ReO]")
8.72

Data point: SNLST[Asu]VLGKLSC([CH2CO-βDap-Lys-Cys-Lys-NH2])ELHKLQTYPRTNTGSGTP-NH2 (lactam N-6; also: ReO complex of chelator on Cys13, Oxorhenium complex; also called Peptide 16 ReO complex) [SNLST.Asu.VLGKLSC(CH2CO.(β-Dap)KCK.amide)ELHKLQTYPRTNTGSGTP.amide•ReO] ; pIC50 = 8.10

pIC50 reported for this binder SNLST[Asu]VLGKLSC([CH2CO-βDap-Lys-Cys-Lys-NH2])ELHKLQTYPRTDVGAGTP-NH2 (lactam N-6; also: ReO complex of chelator on Cys13, Oxorhenium complex; also called Peptide 18 ReO complex) [SNLST.Asu.VLGKLSC(CH2CO.(β-Dap)KCK.amide)ELHKLQTYPRTDVGAGTP.amide•ReO] : 8.15

The reported value for {CH2CO}-SNLSTCVLGKLSC([CH2CO-Gly-Gly-Cys-Lys-NH2])ELHKLQTYPRTNTGSGTP-NH2 (thioether N-6; also: ReO complex, Oxorhenium complex; also called Peptide 12 ReO complex) [CH2CO.SNLST.Cys.VLGKLSC(CH2CO.GGCK.amide)ELHKLQTYPRTNTGSGTP.amide•ReO] in terms of pIC50 is 8.28

The reported pIC50 of the binder {CH2CO}-SNLST[Hhc]VLGKLSC([CH2CO-βDap-Lys-Cys-Lys-NH2])ELHKLQTYPRTNTGSGTP-NH2 (thioether N-6, also called Peptide 5) [CH2CO.SNLST.Hhc.VLGKLSC(CH2CO.(β-Dap)KCK.amide)ELHKLQTYPRTNTGSGTP.amide] was 8.24

Measured values drawn from patent US6479032 for this set.
